Target: T1, FLAG-tagged mouse latent TGF-beta 1 (mouse, UniProt P04202 34-390)
T1 construct: Co-expressed with human furin; also called mouse latent TGF-beta 1 (SLC); mSLC
Test: SPR (BIACORE), antibody captured on anti-human Fc, antigen as analyte, pH 7.4
Observed property: koff (s⁻¹)
# output: bare number, implied unit s⁻¹

Worked examples follow.
• hT0947AE25-SG181 (antibody, human IgG1, kappa, V domains shown, Human IgG1; Heavy chain = VH + CH, light chain = VL + CL) VH: QVQLVESGGGVVQPGRSLRLSCAASGFHFSNEAMNWIRQPPGKGLEWIGYIYTSGTTYRSNWARGRFTISRDNSKNTLYLQMNSLRAEDTAVYYCARGWHIFGHQYWVMHFWGQGTLVTVSS VL: DIQMTQSPSSLSASVGDRVTITCQASQSISTYEAWYQQKPGQPPKLLIYAASTLESGVPSRFSGSGSGTDFTLTISSLQPEDFATYYCQSYSDGDSVGFGQGTKVEIKR = 0.0353
• hT0947AE24-SG181 (antibody, human IgG1, kappa, V domains shown, Human IgG1; Heavy chain = VH + CH, light chain = VL + CL) VH: QVQLVESGGGVVQPGRSLRLSCAASGFHFSSEAMNWIRQPPGKGLEWIGYIYTSGTTYRANWARGRFTISRDNSKNTLYLQMNSLRAEDTAVYYCARGWHIFGHHYWVMHFWGQGTLVTVSS VL: DIQMTQSPSSLSASVGDRVTITCQASQSISTYLAWYQQKPGQPPKLLIYAASTLEWGVPSRFSGSGSGTDFTLTISSLQPEDFATYYCQSYSDGDSVGFGQGTKVEIKR = 0.00441
• hT0947AE23-SG181 (antibody, human IgG1, kappa, V domains shown, Human IgG1; Heavy chain = VH + CH, light chain = VL + CL) VH: QVQLVESGGGVVQPGRSLRLSCAASGFHFSREAMNWIRQPPGKGLEWIGYIYTSGTTYRANWARGRFTISRDNSKNTLYLQMNSLRAEDTAVYYCARGTHLFGHHYWVMHSWGQGTLVTVSS VL: DIQMTQSPSSLSASVGDRVTITCQASQSISTYLAWYQQKPGQPPKLLIYAASTLEYGVPSRFSGSGSGTDFTLTISSLQPEDFATYYCQSYSDGDSVVFGQGTKVEIKR = 0.00187
• hT0947AE26-SG181 (antibody, human IgG1, kappa, V domains shown, Human IgG1; Heavy chain = VH + CH, light chain = VL + CL) VH: QVQLVESGGGVVQPGRSLRLSCAASGFHFSNEAMNWIRQPPGKGLEWIGYIYTSGTTYRSNWARGRFTISRDNSKNTLYLQMNSLRAEDTAVYYCARGWHIFGHQYWVMHFWGQGTLVTVSS VL: DIQMTQSPSSLSASVGDRVTITCQASQSISTYEAWYQQKPGQPPKLLIYAASTLESGVPSRFSGSGSGTDFTLTISSLQPEDFATYYCQSYSDGDSVKFGQGTKVEIKR = 0.00864

Quick one: koff for hT0947AE22-SG181 (antibody, human IgG1, kappa, V domains shown, Human IgG1; Heavy chain = VH + CH, light chain = VL + CL) VH: QVQLVESGGGVVQPGRSLRLSCAASGFHFSREAMNWIRQPPGKGLEWIGYIYTSGTTYRANWARGRFTISRDNSKNTLYLQMNSLRAEDTAVYYCARGWHIFGHHYWVMHFWGQGTLVTVSS VL: DIQMTQSPSSLSASVGDRVTITCQASQSISTYLAWYQQKPGQPPKLLIYAASTLESGVPSRFSGSGSGTDFTLTISSLQPEDFATYYCQSYSDGDSVIFGQGTKVEIKR ?
0.00376
